# System: SNB-19
# assayProcedure: NCI tumour cell line growth inhibition, 48 h
Calls of active or inactive are those of the source. Rule as the data show it: active = GI50 up to about 1.1 µM and inactive = higher.
Each record here notes measured GI50.

Below are worked cases with known answers.
CCOC(=O)CC(=O)Sc1ccccc1    28.2 µM (inactive)
CCCCCCCCCCCCCCCCSCC(COC)COP(=O)([O-])OCC[N+](C)(C)C (stereo not given)    4.3 µM (inactive)
CCC(C)(C)C1CCC2c3c([nH]c4ccccc34)C3C(=O)N(c4ccc(OC)cc4)C(=O)C3C2C1 (stereo not given)    25.6 µM (inactive)
CN(C)CCCN1CCc2c([nH]c3ccccc23)C1c1cccnc1 (stereo not given)    > 100 µM (inactive)

Okay, next one:
The reported GI50 of the compound CC1OC(n2cc(F)c(=O)[nH]c2=O)C(O[Si](C)(C)C(C)(C)C)C1O[Si](C)(C)C(C)(C)C (stereo not given) was 14.7 µM (inactive)
